Origin of values: the supplement of paper PMC12494721

- System: Klebsiella aerogenes DSM 30053
- Experiment notes: fold change of Cadaverine concentration vs plate DMSO controls (fold change (ratio)); higher = more amine produced, active = hit call of the paper (significant change in both replicates, either direction);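 for the amine columns active = adjusted P below 0.05 in both replicates with a change the same way and a mean fold change under 0.8 or over 1.25; inactive = the rest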
- Condition: incubation time: 27 h, anaerobic, 37 °C
Where a name gives a salt, the structure may show the parent alone.
Labels: active, inactive

- Cc1ccc(-c2ncc(Cl)cc2-c2ccc(S(C)(=O)=O)cc2)cn1 [Etoricoxib] (20 µM): inactive
- CCC1(c2ccccc2)C(=O)NCNC1=O [Primidone] (20 µM): inactive
- C[C@@H](CN1CC(=O)NC(=O)C1)N1CC(=O)NC(=O)C1 [Dexrazoxane hydrochloride] (20 µM): inactive
- Cc1cc2cc3c(C)cc(=O)oc3c(C)c2o1 [Trioxsalen] (20 µM): inactive
- OC[C@H]1O[C@@](CO)(O[C@H]2O[C@H](CO)[C@@H](O)[C@H](O)[C@H]2O)[C@@H](O)[C@@H]1O [Sucrose] (50 µM): inactive
- Clc1ccccc1CN1CCc2sccc2C1 [Ticlopidine hydrochloride] (20 µM): inactive
- C=C1c2c(Cl)ccc(O)c2C(O)=C2C(=O)[C@]3(O)C(O)=C(C(N)=O)C(=O)[C@@H](N(C)C)[C@@H]3[C@@H](O)[C@H]12.O=C(O)c1cc(S(=O)(=O)O)ccc1O [Meclocycline sulfosalicylate] (20 µM): active

----------
- Test system: Clostridium sporogenes DSM 1664
- Experiment notes: fold change of Tryptamine concentration vs plate DMSO controls (fold change (ratio)); higher = more amine produced, active = hit call of the paper (significant change in both replicates, either direction)
- Condition: incubation time: 27 h, anaerobic, 37 °C
Counter-ions that a name gives are not always drawn.
Give yes when the value for fold change of Tryptamine concentration is at least 1. Give no when it is less.

- C[C@@H](c1ncncc1F)[C@](O)(Cn1cncn1)c1ccc(F)cc1F [Voriconazole] (20 µM): yes
- COC(=O)C1=C(C)NC(C)=C(C(=O)OCCN2CCN(C(c3ccccc3)c3ccccc3)CC2)C1c1cccc([N+](=O)[O-])c1 (stereo unspecified) [Manidipine Dihydrochloride] (20 µM): no
- CNCC(O)c1ccc(OC(=O)C(C)(C)C)c(OC(=O)C(C)(C)C)c1 (stereo unspecified) [Dipivefrin hydrochloride] (20 µM): yes

----------
Recorded fold change of Histamine concentration for the following compounds
- Tested on: Klebsiella aerogenes DSM 30053
- Experiment notes: fold change of Histamine concentration vs plate DMSO controls (fold change (ratio)); higher = more amine produced, active = hit call of the paper (significant change in both replicates, either direction)
- Condition: incubation time: 27 h, anaerobic, 37 °C
Counter-ions that a name gives are not always drawn.
Parameter: fold change of Histamine concentration

* Cc1c(N(C)C)c(=O)n(-c2ccccc2)n1C [Amidopyrine] (20 µM) | 0.997
* O=C(c1ccccc1)c1ccc2n1CCC2C(=O)O (centres undefined) [Ketorolac tromethamine] (20 µM) | 1.04
* O=C1CC[C@@H](C(=O)N2CSC[C@H]2C(=O)O)N1 [Pidotimod] (20 µM) | 0.983
* CO/N=C(\C(=O)N[C@@H]1C(=O)N2C(C(=O)O)=C(COC(N)=O)CS[C@H]12)c1ccco1 [Cefuroxime sodium salt] (20 µM) | 1.1
* C[C@@H]1O[C@@H](O[C@H]2[C@H](Oc3cc(O)c(C(=O)CCc4ccc(O)cc4)c(O)c3)O[C@H](CO)[C@@H](O)[C@@H]2O)[C@H](O)[C@H](O)[C@H]1O [Naringin Dihydrochalcone] (50 µM) | 0.958
* NC[C@H]1O[C@H](O[C@H]2[C@H](O)[C@@H](O[C@H]3O[C@H](CO)[C@@H](O)[C@H](N)[C@H]3O)[C@H](N)C[C@@H]2N)[C@H](N)C[C@@H]1O [Tobramycin] (20 µM) | 0.65
* CC/C=C(\C(=O)N[C@@H]1C(=O)N2C(C(=O)OCOC(=O)C(C)(C)C)=C(COC(N)=O)CS[C@H]12)c1csc(N)n1 [Cefcapene pivoxil hydrochloride monohydrate] (20 µM) | 0.95
* Nc1nc(=O)c2c([nH]1)NC[C@@H](CNc1ccc(C(=O)N[C@@H](CCC(=O)O)C(=O)O)cc1)N2C=O [Folinic acid calcium salt] (20 µM) | 0.976
* Cc1cc(C(=O)NNCc2ccccc2)no1 [Isocarboxazid] (20 µM) | 0.915
* CC(C)COC(=O)OCN1C(=O)CN(CCN2CC(=O)N(COC(=O)OCC(C)C)C(=O)C2)CC1=O [Sobuzoxane] (20 µM) | 1
* CC(=O)Nc1cccc(O)c1 [Metacetamol] (20 µM) | 1.01
* Clc1ccc(COC(Cn2ccnc2)c2ccc(Cl)cc2Cl)c(Cl)c1 (centres undefined) [Miconazole] (20 µM) | 0.926
* Cc1nc2n(c(=O)c1CCN1CCC(c3noc4cc(F)ccc34)CC1)CCCC2O (centres undefined) [Paliperidone] (20 µM) | 1.05
* CO[C@@]1(NC(=O)C2SC(=C(C(N)=O)C(=O)O)S2)C(=O)N2C(C(=O)O)=C(CSc3nnnn3C)CS[C@@H]21 (some centres undefined) [Cefotetan] (20 µM) | 0.528
